B1: PPFIA4 (parent)
chain: PGVHRRYSALREESAKDWETSPLP

Variants of: B1
assay: protein stability index of a GFP-peptide fusion (GPS, HEK-293T) (PSI 1-6); higher = more stable;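 note: lentivirally expressed fusions sorted by FACS into six bins by GFP to DsRed ratio, PSI derived from sequencing read proportions per bin multiplied by bin number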
test-parameters: c terminus: a fixed tail appended
Kindly supply the reported protein stability index values for the records listed here.
Answers are plain numbers.

Use these answered entries as a reference point.
P22Y    3.3
E13Y    3.14

Kindly give each listed record's protein stability index.
1. E19W
2. E12H
3. L23F
4. S14H

Result:
1: 2.41; 2: 3.85; 3: 4.27; 4: 4.19
